# Experiment: Plasma pharmacokinetics of BI 187004 after single oral doses (LC–MS/MS)
# Assay Context: male, human, plasma, po, 40 mg

Structure As Smiles: N#Cc1ccc2c(c1)[C@H]1CCCN(C(=O)c3ccc4[nH]cnc4c3)[C@H]1C2
AUC(0-inf) / µM·h: 25.9

----------
# Experiment: Plasma pharmacokinetics of BI 187004 after single oral doses (LC–MS/MS)
# Assay Context: male, human, plasma, po, 160 mg, BI 187004 plasma concentrations, 160 mg single oral, planned time 6 h, Min
Result Type: concentration at 6 h (µM)

Compound: N#Cc1ccc2c(c1)[C@H]1CCCN(C(=O)c3ccc4[nH]cnc4c3)[C@H]1C2 [BI 187004]
Measured Number: 3.43

----------
# Experiment: Plasma pharmacokinetics of BI 187004 after single oral doses (LC–MS/MS)
# Assay Context: male, human, plasma, po, 160 mg, BI 187004 plasma concentrations, 160 mg single oral, planned time 3 h, Mean

Structure As Smiles: N#Cc1ccc2c(c1)[C@H]1CCCN(C(=O)c3ccc4[nH]cnc4c3)[C@H]1C2
concentration at 3 h: 5.95 µM

----------
# Experiment: Plasma pharmacokinetics of BI 187004 after single oral doses (LC–MS/MS)
# Assay Context: male, human, plasma, po, 240 mg, BI 187004 plasma concentrations, Min, 240 mg single oral, planned time 2 h

Structure As Smiles: N#Cc1ccc2c(c1)[C@H]1CCCN(C(=O)c3ccc4[nH]cnc4c3)[C@H]1C2
concentration at 2 h: 543 nM

----------
# Experiment: Plasma pharmacokinetics of BI 187004 after single oral doses (LC–MS/MS)
# Assay Context: male, human, plasma, po

Structure As Smiles: N#Cc1ccc2c(c1)[C@H]1CCCN(C(=O)c3ccc4[nH]cnc4c3)[C@H]1C2
Tmax: 1 to 1.5 h

----------
# Experiment: Plasma pharmacokinetics of BI 187004 after single oral doses (LC–MS/MS)
# Assay Context: male, human, plasma, po, 40 mg, BI 187004 plasma concentrations, 40 mg single oral, planned time 5 h, Min

Compound: N#Cc1ccc2c(c1)[C@H]1CCCN(C(=O)c3ccc4[nH]cnc4c3)[C@H]1C2 [BI 187004]
concentration at 5 h: 888 nM

----------
# Experiment: Plasma pharmacokinetics of BI 187004 after single oral doses (LC–MS/MS)
# Assay Context: male, human, plasma, po, 5 mg, Plasma concentration gMean, 5 mg single oral; 36 h

Compound: N#Cc1ccc2c(c1)[C@H]1CCCN(C(=O)c3ccc4[nH]cnc4c3)[C@H]1C2 [BI 187004]
Unit Annotation: nM
concentration at 36 h: 14.2

----------
# Experiment: Plasma pharmacokinetics of BI 187004 after single oral doses (LC–MS/MS)
# Assay Context: male, human, plasma, po, 40 mg, BI 187004 plasma concentrations, 40 mg single oral, planned time 10 h, Max
Result Type: concentration at 10 h

Structure As Smiles: N#Cc1ccc2c(c1)[C@H]1CCCN(C(=O)c3ccc4[nH]cnc4c3)[C@H]1C2
Result: 1140 nM

----------
# Experiment: Plasma pharmacokinetics of BI 187004 after single oral doses (LC–MS/MS)
# Assay Context: male, human, plasma, po, 80 mg, BI 187004 plasma concentrations, 80 mg single oral, planned time 48 h, Median

Structure As Smiles: N#Cc1ccc2c(c1)[C@H]1CCCN(C(=O)c3ccc4[nH]cnc4c3)[C@H]1C2
concentration at 48 h: 230 nM
